assay-target: T1, human CD137 (human, UniProt Q07011 24-186)
T1 construct: Soluble analyte in the Biacore assay; also called 4-1BB; hCD137
T1 sequence (Q07011 24-186 limits assumed): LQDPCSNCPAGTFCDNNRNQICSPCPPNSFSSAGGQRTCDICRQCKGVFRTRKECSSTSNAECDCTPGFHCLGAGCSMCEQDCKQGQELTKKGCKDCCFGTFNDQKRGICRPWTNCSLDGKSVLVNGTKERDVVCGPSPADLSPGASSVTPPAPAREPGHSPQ
protocol-summary: SPR Biacore T200, IgG captured on protein A, antigen as analyte, 25 C;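 also: antigens flowed over a CM3 chip for 120 s association, KD derived from ka and kd, running buffer (ACES, NaCl, Tween20, pH 7.4) served as blank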
Reported koff values for a set of binders
Give the value, in units of s⁻¹, as a plain number.

Worked cases, koff given:
Q. Entry under review: dBBDu_186 / dBBDu_L100 (antibody, human IgG1, V domains shown, Tested as IgG (human IgG1 constant region, kappa light chain); also called dBBDu186/L100) VH: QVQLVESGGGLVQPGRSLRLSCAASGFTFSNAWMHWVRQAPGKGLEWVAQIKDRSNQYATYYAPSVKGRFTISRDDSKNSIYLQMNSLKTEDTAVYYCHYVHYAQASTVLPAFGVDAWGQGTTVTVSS VL: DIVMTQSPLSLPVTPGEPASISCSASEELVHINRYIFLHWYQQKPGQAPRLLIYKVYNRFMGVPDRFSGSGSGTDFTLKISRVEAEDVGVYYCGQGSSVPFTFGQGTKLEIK . Reported koff?
A. 0.000746

Q. Now consider dBBDu_186 / dBBDu_L106 (antibody, human IgG1, V domains shown, Tested as IgG (human IgG1 constant region, kappa light chain); also called dBBDu186/L106) VH: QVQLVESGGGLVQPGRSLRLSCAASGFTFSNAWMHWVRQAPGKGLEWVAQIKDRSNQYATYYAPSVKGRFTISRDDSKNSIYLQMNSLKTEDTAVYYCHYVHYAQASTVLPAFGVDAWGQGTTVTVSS VL: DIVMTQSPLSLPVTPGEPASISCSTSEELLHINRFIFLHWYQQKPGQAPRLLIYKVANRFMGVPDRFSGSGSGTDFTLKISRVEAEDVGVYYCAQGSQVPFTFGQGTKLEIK and answer again.
A. 0.000447

***
Q. Entry under review: dBBDu_193 / dBBDu.L132 (antibody, human IgG1, V domains shown, Tested as IgG (human IgG1 constant region, kappa light chain); also called dBBDu193/L132; dBBDu_193/L132) VH: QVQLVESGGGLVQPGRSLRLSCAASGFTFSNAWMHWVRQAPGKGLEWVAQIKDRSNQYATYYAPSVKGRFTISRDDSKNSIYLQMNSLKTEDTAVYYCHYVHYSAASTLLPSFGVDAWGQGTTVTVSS VL: DIVMTQSPLSLPVTPGEPASISCQTSEELVHINRFIFLHWYQQKPGQAPRLLIYKVSNRFSGVPDRFSGSGSGTDFTLKISRVEAEDVGVYYCAQGTSVPFTFGQGTKLEIK . Reported koff?
A. 0.00211
